Reference source for all entries: patent US12637471B2

Molecular target: Recombinant human AKR1C3 (17β-HSD5) protein (Homo sapiens, UniProt P42330)
Construct: made in house; host or cells: E. coli
Sequence (P42330 whole entry): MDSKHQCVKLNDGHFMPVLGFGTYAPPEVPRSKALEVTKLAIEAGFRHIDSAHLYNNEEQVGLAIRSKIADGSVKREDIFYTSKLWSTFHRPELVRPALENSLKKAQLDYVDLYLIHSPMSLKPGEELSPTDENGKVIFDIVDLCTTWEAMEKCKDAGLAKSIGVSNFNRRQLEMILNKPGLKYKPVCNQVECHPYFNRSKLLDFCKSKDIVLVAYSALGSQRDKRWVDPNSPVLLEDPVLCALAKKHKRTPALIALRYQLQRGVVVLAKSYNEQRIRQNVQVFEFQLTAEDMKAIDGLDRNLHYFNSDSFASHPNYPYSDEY
Assay: Inhibition of AKR1C3 (17β-hydroxysteroid dehydrogenase type 5) enzyme, fluorescence assay
Type: biochemical
Conditions: inhibitor at 500 nM
Experimental: Inhibition of AKR1C3 (17β-Hydroxysteroid Dehydrogenase Type 5) Enzyme Recombinant human AKR1C3 (17β-HSD5) protein (GenBank Accession No. NM_003739.6) produced in E. coli was used for screening. […] The samples were analysed by fluorescent measurement with Tecan Spark microplate reader at wavelengths 420 nm for excitation and 510 nm for emission. […] Background fluorescence was reduced from all the samples and standards. […] Inhibition percentages of samples were calculated using following formula: […]
reported.endpoint: inhibition at 0.5 µM (%)

> print(dat)
                           molecular.string  measured.result
1  N#CC(=C1CCN(C(=O)N2CCc3[nH]ncc3C2)CC1)c1ccc(Cl)s1               99
2  N#CC(=C1CCN(C(=O)N2CCc3[nH]ncc3C2)CC1)c1cccc2[nH]ncc12               98
3  N#CC(=C1CCN(C(=O)N2CCc3nocc3C2)CC1)c1ccc(F)cn1               98
4  N#CC(=C1CCN(C(=O)N2CCC(O)CC2)CC1)c1cc(F)cc(F)c1               93
5  N#CC(=C1CCN(C(=O)N2CCc3sccc3C2)CC1)c1ccc(Cl)cn1               96
